systemName: Lysosomal alpha-glucosidase (Homo sapiens)
experimentNotes: qHTS Assay for Activators of Human alpha-Glucosidase as a Potential Chaperone Treatment of Pompe Disease; also: potency is read from the fitted curve at half-maximal effect; nearly all actives have a fitted effect of over 80% in size
testConditions: purified enzyme, 4-MU-alpha-glucoside fluorescence, 20 min; series mostly up to 76.9 µM
Among all 200,000 compounds or so, about 720 (0.36%) were called active. About 8% were inconclusive and are not listed. This is one part of the list.
Below: a set of entries, each annotated with reported Potency.
measureName: Potency

compound | measureName | valueReported
CSc1cnc2c(=O)n(C)c(=O)[nH]c2n1 | Potency | 35.5 µM (active)
CC1CN(C(=O)c2cc3c(=O)n4ccccc4nc3s2)CC(C)O1 (stereo unspecified) | Potency | 35.5 µM (active)
Cc1c(C)c2cc(Cl)c(O)c(CN3CCCCC3)c2oc1=O | Potency | 14.1 µM (active)
Clc1ccc(N2N=C(c3cccs3)CC2c2ccco2)cc1 (stereo unspecified) | Potency | 35.5 µM (active)
Fc1ccc(N2N=C(c3cccs3)CC2c2ccco2)c(F)c1 (stereo unspecified) | Potency | 31.6 µM (active)
Cc1c(C)c2cc(Cl)c(O)c(CN3CCN(C)CC3)c2oc1=O | Potency | 25.1 µM (active)
